tested on: MCF10A; assay: one-nucleolus phenotype percent effect (relative to siNT 0% and siNOL11 100%); higher = more cells with one nucleolus (ribosome biogenesis inhibition); conditions: 20 nM; 72 h
# maps each entry to its one-nucleolus phenotype percent effect
Write down the numeric answer in % and omit the unit.

monomer sequence: CUUGGCACCUAGCAAGCACUCA [hsa-miR-1271-5p]
test system: MCF10A
result unit: %
quantitative readout: -2.87
--
monomer sequence: GUGCGUGGUGGCUCGAGGCGGGG [hsa-miR-6821-5p]
test system: MCF10A
result unit: %
quantitative readout: -27.7
--
monomer sequence: UGGUCUGCAAAGAGAUGACUGU [hsa-miR-4527]
test system: MCF10A
result unit: %
quantitative readout: 104
--
monomer sequence: ACCCUUGAGCCUGAUCCCUAGC [hsa-miR-4780]
test system: MCF10A
result unit: %
quantitative readout: -13.2
--
monomer sequence: GAUCCAUCUCUGCCUGUAUUGGC [hsa-miR-7151-5p]
test system: MCF10A
result unit: %
quantitative readout: 5.88
--
monomer sequence: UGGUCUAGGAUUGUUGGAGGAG [hsa-miR-601]
test system: MCF10A
result unit: %
quantitative readout: 22.9
--
monomer sequence: AUUUGUGCUUGGCUCUGUCAC [hsa-miR-2113]
test system: MCF10A
result unit: %
quantitative readout: -12.4
--
monomer sequence: CAGCCGCCGCCUGUCUCCACAG [hsa-miR-6746-3p]
test system: MCF10A
result unit: %
quantitative readout: -1.13
--
monomer sequence: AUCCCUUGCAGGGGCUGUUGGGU [hsa-miR-623]
test system: MCF10A
result unit: %
quantitative readout: -13.1
--
monomer sequence: UACUGCAGACAGUGGCAAUCA [hsa-miR-509-5p]
test system: MCF10A
result unit: %
quantitative readout: 7.14

The sequence identified as GUGGAGUCCUGGGGAAUGGAGA [hsa-miR-3198] registered its one-nucleolus phenotype percent effect at 22

The sequence identified as AGCCUUCCAGGAGAAAUGGAGA [hsa-miR-5581-5p] registered its one-nucleolus phenotype percent effect at 20.5

The sequence identified as CUGGACUGAGCCAUGCUACUGG [hsa-miR-1269b] registered its one-nucleolus phenotype percent effect at 2.22

---

test system: MCF10A; assay: percent viability (nuclei count relative to siNT); higher = more viable cells; conditions: 20 nM; 72 h
observation type: percent viability (%)
Write down the numeric answer in % and omit the unit.

In the examples that follow, each entry is paired with its recorded percent viability.
monomer sequence: GGCAGGAGGGCUGUGCCAGGUUG [hsa-miR-4722-5p]
quantitative readout: 60.5
//
monomer sequence: AACUCCAAACACUCAAAACUCA [hsa-miR-3145-5p]
quantitative readout: 119
//
monomer sequence: CAAAUAAUACCACAGUGGGUGU [hsa-miR-5692a]
quantitative readout: 105

The sequence identified as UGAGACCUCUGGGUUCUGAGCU [hsa-miR-769-5p] registered its percent viability at 47.4

The sequence identified as GGCGCGCCCAGCUCCCGGGCU [hsa-miR-4783-5p] registered its percent viability at 90.3

The sequence identified as AGGUGGUCCGUGGCGCGUUCGC [hsa-miR-323a-5p] registered its percent viability at 19.8

---

test system: MCF10A; assay: 5+ nucleoli phenotype percent effect (relative to siNT 0% and siKIF11 100%); higher = more cells with five or more nucleoli; conditions: 20 nM; 72 h
# maps each entry to its 5+ nucleoli phenotype percent effect
Write down the numeric answer in % and omit the unit.

monomer sequence: GCAGAUCAGGACUGUAACUCACC [hsa-miR-1288-5p]
5+ nucleoli phenotype percent effect [%]: 31.1
--
monomer sequence: CUCGGCCGCGGCGCGUAGCCCCCGCC [hsa-miR-4665-3p]
5+ nucleoli phenotype percent effect [%]: 22

The record that follows has no 5+ nucleoli phenotype percent effect shown yet.
The sequence identified as GCCUCUCUCGGAGUCGCUCGGA [hsa-miR-3183] registered its 5+ nucleoli phenotype percent effect at 40
